System: SF-539 CNS
Experiment: NCI tumour cell line growth inhibition, 48 h; in the data active means GI50 below about 0.43 µM; inactive means the rest
Outcomes: active, inactive

Cpd Smiles: CC(C)(C[C@H]1CN(S(=O)(=O)c2cccc(C(F)(F)F)c2)c2cc(-c3cc(F)cc(OC(F)F)c3)ccc2O1)C(=O)O
Measurement Target: SF-539 CNS
Label Class: inactive
//
Cpd Smiles: CCn1c(SCc2ccc(C)cc2)nnc1-c1nn(-c2ccc(Cl)cc2Cl)c(-c2ccc(Cl)cc2)c1C
Measurement Target: SF-539 CNS
Label Class: inactive
//
Cpd Smiles: Cn1c(=O)c(Cc2ccccc2F)cc2cnc(NC3CCOCC3)nc21
Measurement Target: SF-539 CNS
Label Class: inactive
//
Cpd Smiles: COc1ccc(CCN2COc3c([C@@H](C)CCC=C(C)C)ccc(C)c3C2)cc1OC
Measurement Target: SF-539 CNS
Label Class: inactive
//
Cpd Smiles: COc1cccc2c(=O)c3c(sc12)c(N1CCNCC1)nc1ccccc13
Measurement Target: SF-539 CNS
Label Class: inactive
//
Cpd Smiles: Cc1[nH]c2ccccc2c(=O)c1CC=C(Cl)Cl
Measurement Target: SF-539 CNS
Label Class: inactive
//
Cpd Smiles: CN(C)c1cc[c]([Sn]([c]2ccc(N(C)C)cc2)([c]2ccc(N(C)C)cc2)[c]2ccc(N(C)C)cc2)cc1
Measurement Target: SF-539 CNS
Label Class: inactive
//
Cpd Smiles: CC/C=C\C[C@H]1C/C=C2/C(=O)C=C[C@@H]2C/C=C\CCCC(=O)O1
Measurement Target: SF-539 CNS
Label Class: inactive
//
Cpd Smiles: O=c1c2ccccc2c(=O)c2c1[nH]c1c(-c3ccccc3)c(-c3ccccc3)c(=O)c12
Measurement Target: SF-539 CNS
Label Class: inactive
//
Cpd Smiles: O=c1cccc(C#CC#CC2=CCCCC2)o1
Measurement Target: SF-539 CNS
Label Class: active

====

Tested on: DMS 114 small cell lung
Test: NCI tumour cell line growth inhibition, 48 h
Catalogue of molecules with associated TGI

Molecule: Cc1c(C(=O)/C=C/c2ccccc2)[n+](=O)c2ccccc2n1[O-]
TGI: 22.2 µM
//
Molecule: O=C1NC2OC(C(O)CO)C(O)C2O1 (stereo not drawn)
TGI: > 100 µM
//
Molecule: CC(=O)O[C@]12CCCCCC1C1(O)C(O)CCCC[C@H]12 (stereo partly drawn)
TGI: > 100 µM
//
Molecule: O=c1c(C(c2ccc(Cl)cc2)c2c(O)c3ccccc3n(-c3ccccc3)c2=O)c(O)c2ccccc2n1-c1ccccc1
TGI: > 100 µM
//
Molecule: COc1ccc(CC2NCCc3cc(OC)c(OC)cc32)cc1Br (stereo not drawn)
TGI: 52.9 µM
//
Molecule: c1ccc(C2Nc3ccccc3C3OCCCC23)cc1 (stereo not drawn)
TGI: 62.4 µM
//
Molecule: O=C1CC2CCCC23CC2(CCN13)OCCO2 (stereo not drawn)
TGI: > 100 µM
//
Molecule: COc1cc2c3c(c1OC)C1(C=CC(=O)C=C1)C[C@H]3N(C)CC2
TGI: > 100 µM

====

System: K-562 leukemia
Test: NCI tumour cell line growth inhibition, 48 h
Catalogue of molecules with associated TGI

Molecule: O=C1O[C@H](c2ccc3c(c2)OCO3)[C@H]2CO[C@@H](c3ccc4c(c3)OCO4)[C@@H]12
TGI: > 100 µM
--
Molecule: Nc1nc(F)nc2c1ncn2C1OC(CO)C(O)C1O (stereo unspecified)
TGI: > 100 µM
--
Molecule: O=c1cccc(C#CC#CC2=CCCCC2)o1
TGI: > 41.8 µM
--
Molecule: Cc1ccc(S(=O)(=O)C(C#N)c2nc3ccccc3nc2-n2ccnc2)cc1 (stereo unspecified)
TGI: > 100 µM
--
Molecule: CCOC(=O)NC(Nc1ccc([N+](=O)[O-])cc1)(C(F)(F)F)C(F)(F)F
TGI: > 100 µM
--
Molecule: C=CCOc1ccc(C2(O)c3ccccc3C3=NCCCN32)cc1 (stereo unspecified)
TGI: > 87.2 µM
--
Molecule: COc1ccc(C2OC(c3ccncc3)=NN2C)cc1OC (stereo unspecified)
TGI: > 100 µM
--
Molecule: NC(=O)NCc1c(C(N)=O)ncn1Cc1ccccc1
TGI: > 100 µM
--
Molecule: CCOc1cc(C(C)(C)C)ccc1C1=N[C@@](C)(c2ccc(Cl)cc2)[C@@](C)(c2ccc(Cl)cc2)N1C(=O)N1CCN(CCCS(C)(=O)=O)CC1
TGI: > 100 µM
--
Molecule: COc1cc(/C=C/c2ccc(OC)c(OC)c2)cc(OC)c1
TGI: > 100 µM
--
Molecule: CCCCCCCCCCCCCCCCCCOc1ccccc1CC(=O)OCC[N+]1(C)CCCC1
TGI: 10.5 µM

====

Catalogue of molecules with associated TGI
System: HL-60(TB) leukemia
Assay: NCI tumour cell line growth inhibition, 48 h

Molecule: Cc1ccc2[nH]c(O)c(N=Nc3ccc(S(N)(=O)=O)cc3)c2c1
TGI: > 25 µM

Molecule: CSC(C1c2ccccc2N(c2ccc(C)cc2)c2[nH]c(=O)n(C)c(=O)c21)S(=O)(=O)c1ccc(C)cc1 (stereo not drawn)
TGI: > 100 µM

Molecule: CSc1ncnc2c1ncn2CCC#N
TGI: > 100 µM

Molecule: CC1=C[C@H]2c3c(c(O)c(O)c4oc(-c5ccccc5)cc(=O)c34)[C@H](c3cc(O)c(O)c4oc(-c5ccccc5)cc(=O)c34)[C@H]2C(C)(C)C1
TGI: 7.33 µM

Molecule: COc1ccc(-c2nn(-c3ccc(NC(=O)Nc4cc(C(F)(F)F)cc(C(F)(F)F)c4)cc3)cc2-c2ccncc2)cc1Cl
TGI: 6.58 µM

Molecule: CC(=O)OCC1OC(n2c3c(cc(C#N)c2=S)CCCCC3)C(OC(C)=O)C(OC(C)=O)C1OC(C)=O (stereo not drawn)
TGI: > 100 µM

Molecule: CC(=O)NC1c2ccccc2C(C)(C)C12CCC1(CC2)OCCO1 (stereo not drawn)
TGI: > 100 µM

Molecule: C1CCC([PH+](C2CCCCC2)C2CCCCC2[PH+](C2CCCCC2)C2CCCCC2)CC1.O=C(C1[CH-]CCCC1)C1CCCC[N-]1.[Au] (stereo not drawn)
TGI: 0.731 µM

====

System: SN12C renal
Assay: NCI tumour cell line growth inhibition, 48 h

Compound: CC(=O)OCC1OC(n2c3c(cc(C#N)c2=S)CCCCC3)C(OC(C)=O)C(OC(C)=O)C1OC(C)=O (centres undefined)
Measurement Target: SN12C renal
TGI: > 100 µM

Compound: Nc1ccc(S2(c3ccc(N)cc3)C=C(c3ccccc3)C(c3ccccc3)=C2)cc1
Measurement Target: SN12C renal
TGI: > 100 µM

Compound: CCCCN=C(c1ccccc1)N1CCOCC1
Measurement Target: SN12C renal
TGI: > 100 µM

Compound: COc1ccc(C2OC(c3ccncc3)=NN2C)cc1OC (centres undefined)
Measurement Target: SN12C renal
TGI: > 100 µM

Compound: CSc1ncnc2c1ncn2CCC#N
Measurement Target: SN12C renal
TGI: > 100 µM

Compound: CSc1sc2ccccc2[s+]1
Measurement Target: SN12C renal
TGI: > 100 µM

Compound: C=CC[C@]12C=C(OC)[C@@H](O)[C@](OC)(C(c3cc(OC)c4c(c3)OCO4)[C@H]1C)[C@H]2OC(C)=O (some centres undefined)
Measurement Target: SN12C renal
TGI: > 100 µM

Compound: O=C1c2cccnc2-c2nccc3c2c1nc1cc(Br)ccc13
Measurement Target: SN12C renal
TGI: 0.412 µM

Compound: OCc1ccc(C2CC(c3ccco3)=NN2c2ccccc2)o1 (centres undefined)
Measurement Target: SN12C renal
TGI: > 100 µM

Compound: O=C(CCC1OCCO1)Nc1cc(NCc2ccccc2)ccc1OCc1ccccc1
Measurement Target: SN12C renal
TGI: > 100 µM

Compound: CC(=O)N[C@H]1CSSC[C@@H](C(N)=O)NC(=O)[C@H](C(C)C)NC(=O)[C@H](C)NC(=O)[C@H](Cc2cnc[nH]2)NC1=O
Measurement Target: SN12C renal
TGI: > 100 µM

Compound: C#C[C@]1(O)CC[C@H]2[C@@H]3CCC4=C/C(=N/OC(=O)c5cccc6c(=O)c7ccccc7[nH]c56)CC[C@@H]4[C@H]3CC[C@@]21C
Measurement Target: SN12C renal
TGI: > 100 µM

Compound: COc1ccc(OC)c2c(C(=O)O)c(Cc3ccccc3)ccc12
Measurement Target: SN12C renal
TGI: > 100 µM

Compound: C[N+]12CCCCC1C(CN1C(=O)Cc3c4ccccc4c(c4ccccc34)CC1=O)CCC2 (centres undefined)
Measurement Target: SN12C renal
TGI: > 100 µM

Compound: CC(C)(C)c1cc(C(O)(C(F)(F)F)C(F)(F)F)c2c(c1)C(C(F)(F)F)(C(F)(F)F)OC(C(C)(C)C)N2 (centres undefined)
Measurement Target: SN12C renal
TGI: 14.6 µM

Compound: O=C(O)/C=c1/c2ccccc2n2nc3ccccc3c12
Measurement Target: SN12C renal
TGI: 88.8 µM

Compound: COC1C=COC2(C)Oc3c(C)c(O)c4c(O)c(c(C5SCCS5)c(O)c4c3C2=O)NC(=O)C(C)=C/C=C\C(C)C2OC(C)(C)OC(C2C)C(C)C(OC(C)=O)C1C (centres undefined)
Measurement Target: SN12C renal
TGI: 16.6 µM

Compound: O=C(Nc1c(Cl)cc([N+](=O)[O-])cc1Cl)C(=O)C(C1OC(=O)c2ccccc21)[N+](=O)[O-] (centres undefined)
Measurement Target: SN12C renal
TGI: > 100 µM

Compound: COc1cc(C(=O)c2cc(C)c3[nH]c4ccc(C)cc4c3c2C)cc(OC)c1OC
Measurement Target: SN12C renal
TGI: > 100 µM

Compound: CCOC(=O)c1ccc(C)c(N=NN(C)C)c1
Measurement Target: SN12C renal
TGI: > 100 µM

Compound: O=C(O)C1C(Br)(c2ccccc2)C1(Br)c1ccccc1 (centres undefined)
Measurement Target: SN12C renal
TGI: > 100 µM

Compound: COc1ccc(CCN2COc3c([C@@H](C)CCC=C(C)C)ccc(C)c3C2)cc1OC
Measurement Target: SN12C renal
TGI: 13.5 µM

Compound: N#CC1CC2(C1)OCCS2 (centres undefined)
Measurement Target: SN12C renal
TGI: > 100 µM

Compound: COc1ccc(/C=C/C(=O)C(CC2CCC2)C(=O)/C=C/c2ccc(OC)c(OC)c2)cc1OC
Measurement Target: SN12C renal
TGI: 4.55 µM

Compound: CN1COCc2c1ccc1cc3ccc4c(c3nc21)COCN4S(C)(=O)=O
Measurement Target: SN12C renal
TGI: > 100 µM

Compound: O=C(c1ccccc1)C1OC12C(=O)Nc1ccccc12 (centres undefined)
Measurement Target: SN12C renal
TGI: > 100 µM

Compound: O=C(NCO)NCOCn1c(=O)n(CO)c(=O)n(CO)c1=O
Measurement Target: SN12C renal
TGI: > 100 µM

Compound: ClCC[N+]12CC[N+](CCCl)(CC1)C2
Measurement Target: SN12C renal
TGI: > 100 µM

Compound: CCOc1ccc(/C=C2/C(=O)N=C(NC(C)=O)N2C)cc1
Measurement Target: SN12C renal
TGI: > 100 µM

Compound: CCCSc1nc(COC(=O)NC)c(COC(=O)NC)n1C
Measurement Target: SN12C renal
TGI: > 100 µM

Compound: COc1ccc(C(=O)COc2ccc(/C=C3\COc4ccc(OC)cc4C3=O)cc2)cc1
Measurement Target: SN12C renal
TGI: > 100 µM

Compound: CCSc1nc(SCC)c2cn[nH]c2n1
Measurement Target: SN12C renal
TGI: > 100 µM

Compound: [N-]=[N+]=NC1=C(c2ccccn2)C(=O)c2cccc3cccc1c23
Measurement Target: SN12C renal
TGI: > 100 µM

Compound: CC1=C(C(=O)Nc2ccc(F)c(Cl)c2)C(c2cccc(O)c2)NC(=O)N1 (centres undefined)
Measurement Target: SN12C renal
TGI: > 100 µM

Compound: O=C1CSC(c2ccc(Cl)cc2Cl)N1c1ccc(F)cc1 (centres undefined)
Measurement Target: SN12C renal
TGI: 30.6 µM

Compound: COc1ccc2nc(NC(=O)C(=O)C(C#N)c3ccc([N+](=O)[O-])cc3)sc2c1 (centres undefined)
Measurement Target: SN12C renal
TGI: > 100 µM

Compound: NNC(=O)CSc1nc2ccccc2c(=O)n1N
Measurement Target: SN12C renal
TGI: > 100 µM

Compound: CN1C2CCC1CC(C)(O)C2 (centres undefined)
Measurement Target: SN12C renal
TGI: > 100 µM

Compound: CC1=C[C@H]2c3c(c(O)c(O)c4oc(-c5ccccc5)cc(=O)c34)[C@H](c3cc(O)c(O)c4oc(-c5ccccc5)cc(=O)c34)[C@H]2C(C)(C)C1
Measurement Target: SN12C renal
TGI: 7.31 µM

Entry source: PubChem BioAssay (NCI)
